System: OVCAR-5
assay: NCI tumour cell line growth inhibition, 48 h
Calls of active or inactive are those of the source. Rule as the data show it: active = GI50 up to about 1.1 µM and inactive = higher.
readout.label: GI50

{"molecule": "N/N=C(\\Nc1ccccc1)SCc1ccccc1", "readout.label": "GI50", "assay.value": "> 100 µM (inactive)"}
{"molecule": "Oc1cc(-c2ccccc2)nc2c(S)cccc12", "readout.label": "GI50", "assay.value": "> 100 µM (inactive)"}
{"molecule": "COc1ccc2cc(C(C)C(O)c3cc(F)c(F)c(F)c3F)ccc2c1 (stereo not drawn)", "readout.label": "GI50", "assay.value": "> 100 µM (inactive)"}

====

System: UO-31
assay: NCI tumour cell line growth inhibition, 48 h
Active and inactive are the calls of the source. Rule as the data show it: active = GI50 up to about 1.1 µM and inactive = higher.
Outcomes: YES for active, NO for inactive

{"compound": "Cc1c(O)c(OC2OC(CO)C(O)C(O)C2O)cc2c1CC[C@@H]1C2(C)C(=O)C[C@]2(C)[C@@H]([C@@](C)(O)C(O)/C=C/C(C)(C)O)[C@H](O)C[C@@]12C (stereo not given in full)", "target.or.test.system": "UO-31", "classification": "NO"}
{"compound": "Cc1cnc2nc(-c3sccc3C)cc(O)c2c1", "target.or.test.system": "UO-31", "classification": "NO"}
{"compound": "CC(C)NC(C)Cc1ccccc1 (stereo not given)", "target.or.test.system": "UO-31", "classification": "NO"}
{"compound": "COc1cccc(C2c3cc4c(cc3OC(N3CCCC3)C2C)OCO4)c1OC (stereo not given)", "target.or.test.system": "UO-31", "classification": "NO"}
{"compound": "COC(=O)c1sc(=O)sc1SCc1cccc(CSc2sc(=O)sc2C(=O)OC)c1", "target.or.test.system": "UO-31", "classification": "NO"}
{"compound": "CO[C@H]1C[C@H](O[C@H]2CC[C@]3(C=O)[C@H]4CC[C@]5(C)[C@@H](C6=CC(=O)OC6)CC[C@]5(O)[C@@H]4CC[C@]3(O)C2)O[C@H](C)[C@H]1O[C@@H]1O[C@H](CO[C@@H]2O[C@H](CO)[C@@H](O)[C@H](O)[C@H]2O)[C@@H](O)[C@H](O)[C@H]1O", "target.or.test.system": "UO-31", "classification": "YES"}
{"compound": "Nc1nc(N)c(-c2ccccc2)c(CCC(=O)Nc2ccc(Cl)cc2)n1", "target.or.test.system": "UO-31", "classification": "NO"}
{"compound": "COC(=O)/C(C)=C(/CCC1(C)OCCO1)O[Si](C)(C)C", "target.or.test.system": "UO-31", "classification": "NO"}
{"compound": "CCCNC(=O)CCC(C)C1CCC2C3C(C[C@H](OC(C)=O)[C@]12C)[C@@]1(C)CCC2(C[C@H]1C[C@H]3OC(C)=O)OOC1(CC[C@]3(C)C4C[C@H](OC(C)=O)[C@]5(C)C(C(C)CCC(=O)NCCC)CCC5C4[C@H](OC(C)=O)C[C@@H]3C1)OO2 (stereo not given in full)", "target.or.test.system": "UO-31", "classification": "YES"}
{"compound": "Cc1csc(=S)n1OC(=O)NC1CCCCC1", "target.or.test.system": "UO-31", "classification": "NO"}

====

Test system: RPMI-8226
assay: NCI tumour cell line growth inhibition, 48 h
Activity calls are given as the source filed them. Cut-off read from the data, not from the text of the source: active = GI50 up to about 1.1 µM and inactive = higher.

{"compound": "c1cn[nH]c1 [PYRAZOLE]", "target.or.test.system": "RPMI-8226", "GI50": "> 10 µM (inactive)"}
{"compound": "O=C(O)C1CCCN(CCc2c[nH]c3ccccc23)C1 (stereo unspecified)", "target.or.test.system": "RPMI-8226", "GI50": "> 100 µM (inactive)"}
{"compound": "Cc1ccc(S(=O)(=O)NC(=O)Nc2cc(Cl)c(S(N)(=O)=O)cc2S(N)(=O)=O)cc1", "target.or.test.system": "RPMI-8226", "GI50": "> 100 µM (inactive)"}
{"compound": "CC(Oc1ccc(Cl)cc1Cl)C(=O)NN1C(=O)CSC1c1ccc(Cl)cc1 (stereo unspecified)", "target.or.test.system": "RPMI-8226", "GI50": "35.7 µM (inactive)"}
{"compound": "CCC(=O)C(c1ccccc1)c1ccccn1 (stereo unspecified)", "target.or.test.system": "RPMI-8226", "GI50": "> 100 µM (inactive)"}
{"compound": "OCCOCn1nc(-c2ccccc2)nc1-c1cnccn1", "target.or.test.system": "RPMI-8226", "GI50": "> 100 µM (inactive)"}
{"compound": "CC(C)C(NC(=O)C(Cc1ccccc1)NC(=O)[C@H]1CCC[C@H]1NC(=O)C(N)Cc1ccc(O)cc1)C(N)=O (stereo partly specified)", "target.or.test.system": "RPMI-8226", "GI50": "> 100 µM (inactive)"}
{"compound": "CCCCC(=O)c1c(O)ccc2c(C)cc(=O)oc12", "target.or.test.system": "RPMI-8226", "GI50": "52 µM (inactive)"}
{"compound": "[N-]=[N+]=Nc1ccc(CCN2CCN(c3cccc(C(F)(F)F)c3)CC2)cc1I", "target.or.test.system": "RPMI-8226", "GI50": "13 µM (inactive)"}
{"compound": "Cc1nc(C)c(N2CCN(Cc3ccccc3)CC2)c(O)n1", "target.or.test.system": "RPMI-8226", "GI50": "> 100 µM (inactive)"}
{"compound": "O=CN1CCN(C(=O)c2ccc(Cl)cc2)C1=S", "target.or.test.system": "RPMI-8226", "GI50": "3.35 µM (inactive)"}
{"compound": "COc1ccc2nc(N/N=C/c3sccc3C)cc(C)c2c1", "target.or.test.system": "RPMI-8226", "GI50": "9.38 µM (inactive)"}
{"compound": "Oc1cc(-c2ccccc2)nc2c(S)cccc12", "target.or.test.system": "RPMI-8226", "GI50": "> 100 µM (inactive)"}
{"compound": "CCOC(=O)NC(=O)c1cn(CCOC(=O)CCCCCCCCC(=O)OCCn2cc(C(=O)NC(=O)OCC)c(=O)[nH]c2=O)c(=O)[nH]c1=O", "target.or.test.system": "RPMI-8226", "GI50": "> 100 µM (inactive)"}
{"compound": "CCC(C)(C)/C(CC(O)(C(F)(F)F)C(F)(F)F)=N\\O", "target.or.test.system": "RPMI-8226", "GI50": "> 100 µM (inactive)"}
{"compound": "O=C1/C(=C/c2ccc(O)c(O)c2)CCC/C1=C\\c1ccc(O)c(O)c1", "target.or.test.system": "RPMI-8226", "GI50": "2.48 µM (inactive)"}
{"compound": "O=C(c1ccco1)N(C(=S)OCc1ccccn1)c1ccccc1", "target.or.test.system": "RPMI-8226", "GI50": "49.3 µM (inactive)"}
{"compound": "CC(C)[C@H](NC(=O)[C@@H](O)[C@H](N)Cc1ccccc1)C(=O)N[C@@H](Cc1ccccc1)C(=O)O", "target.or.test.system": "RPMI-8226", "GI50": "> 100 µM (inactive)"}
{"compound": "O=C(O)C1C2CCC(O2)C1C(=O)N1CCCCC1 (stereo unspecified)", "target.or.test.system": "RPMI-8226", "GI50": "3.26 µM (inactive)"}
{"compound": "COP1(=O)NCc2ncccc2O1 (stereo unspecified)", "target.or.test.system": "RPMI-8226", "GI50": "> 100 µM (inactive)"}
{"compound": "COc1ccc(-c2nc(N)nc(-c3cc(C)ccc3O)c2Cl)cc1", "target.or.test.system": "RPMI-8226", "GI50": "> 100 µM (inactive)"}
{"compound": "ClC1(Cl)C(c2ccccc2)C1c1ccccc1 (stereo unspecified)", "target.or.test.system": "RPMI-8226", "GI50": "24.4 µM (inactive)"}
{"compound": "COC(=O)c1c2n(c3ccccc13)C[C@H]1OC(C)(C)O[C@@H]21", "target.or.test.system": "RPMI-8226", "GI50": "> 100 µM (inactive)"}
{"compound": "C[C@H]1CC[C@@H]2[C@@H](C)[C@H]3[C@H](C[C@H]4[C@@H]5CC=C6C[C@@H](O)CC[C@]6(C)[C@H]5C[C@H](O)[C@]34C)N2C1", "target.or.test.system": "RPMI-8226", "GI50": "> 100 µM (inactive)"}
{"compound": "C[C@]12CC[C@H]3[C@@H](CCC4=C[C@@H](N5CCCC5)CC[C@@]43C)[C@@H]1C/C(=C\\c1ccncc1)[C@@H]2O", "target.or.test.system": "RPMI-8226", "GI50": "4.79 µM (inactive)"}
{"compound": "O=C(NCCC1([N+](=O)[O-])CCN(C(=O)c2ccccc2)CC1)c1ccccc1", "target.or.test.system": "RPMI-8226", "GI50": "58.7 µM (inactive)"}
{"compound": "O=C1NC2(CCN(CCc3ccccc3)CC2)Oc2ccccc21", "target.or.test.system": "RPMI-8226", "GI50": "33.7 µM (inactive)"}
{"compound": "CCOC(=O)c1c2ccccc2n2c(=O)n(-c3ccccc3)nnc12", "target.or.test.system": "RPMI-8226", "GI50": "15.3 µM (inactive)"}
{"compound": "CCOc1ccc(/N=C(/NC(=O)c2ccccc2)SC)cc1", "target.or.test.system": "RPMI-8226", "GI50": "> 100 µM (inactive)"}
{"compound": "O=[N+]([O-])c1ccc(/C=N/Nc2nnc3c4ccccc4c4ncccc4c3n2)o1", "target.or.test.system": "RPMI-8226", "GI50": "> 10 µM (inactive)"}
{"compound": "COc1ccc2cc(C(C)C(O)c3cc(F)c(F)c(F)c3F)ccc2c1 (stereo unspecified)", "target.or.test.system": "RPMI-8226", "GI50": "> 100 µM (inactive)"}
